FYI, the data here is from patent US8877946B2.

The entries below come with measured pIC50 values attached.
test system: HuH7 cells; test: MTT antiproliferative (growth inhibition) assay on HuH7 cells; assay type: cell-based, human; conditions: Homo sapiens, Huh-7, MTT, 72 h incubation, mean and SD of 3 or more independent determinations (Tables 1-8), read-out: IC 50
pIC50: −log10 of the molar value.
Measure: pIC50

- O=C1Nc2ccc(Cl)cc2/C1=C\c1cccc(C(F)(F)F)c1 [Compound 2-7, reference compound]: 6.09
- O=C1Nc2ccc(F)c(F)c2/C1=C/c1cccc(OC(F)(F)F)c1 [Compound 6-8]: 5.53
- N#Cc1cccc(/C=C2/C(=O)Nc3cc(Cl)ccc32)c1 [Compound 1-19]: 5.13
- O=C1Nc2cc(Cl)ccc2/C1=C\c1ccc(C(F)(F)F)cc1 [Compound 1-11]: 4.96
- O=C1Nc2ccccc2/C1=C\c1cccc(C(F)(F)F)c1 [Compound 8-1]: 5.25
- O=C1Nc2ccc(Cl)cc2/C1=C\c1ccc(C(F)(F)F)cc1 [Compound 2-8]: 5.10
- O=C1Nc2ccc(Cl)cc2/C1=C\c1cccc(OC(F)(F)F)c1 [Compound 2-10]: 5.42
